meta.source: ChEMBL document CHEMBL1138305

Measured Survival by item
system: HT-29; test: Growth inhibition of HT29 cells assessed as relative survival at 150 uM after 2 hrs relative to control; format: functional, Homo sapiens
Returns: the value as a bare number; no unit string appended.

Recorded Survival, per entry:
>>> result("Cc1ccc(Cn2cc(/C=C3/C(=O)C4CCN3CC4)c3ccccc32)cc1")
1
>>> result("OC1/C(=C/c2cn(Cc3ccccc3)c3ccccc23)N2CCC1CC2 (racemic)")
0.06
>>> result("Cc1ccc(Cn2cc(/C=C3/C(O)C4CCN3CC4)c3cc(Br)ccc32)cc1 (stereo unspecified)")
0.78
>>> result("OC1/C(=C/c2cn(Cc3ccccc3Br)c3ccc(Br)cc23)N2CCC1CC2 (stereo unspecified)")
0.58
>>> result("O=C1/C(=C/c2cn(Cc3ccc(F)cc3)c3ccc(Br)cc23)N2CCC1CC2")
0.81

Problem: Reported Survival, compound O=C1/C(=C/c2cn(Cc3ccccc3Br)c3ccc(Br)cc23)N2CCC1CC2 : ____
Solution: 0.96

Problem: // repeat for Cc1ccc2c(c1)c(/C=C1/C(O)C3CCN1CC3)cn2Cc1ccccc1 (stereo unspecified) and report
Solution: 1

---

system: HT-29; assay: Growth inhibition of HT29 cells assessed as relative survival at 150 uM after 2 hrs relative to control; type: functional, Homo sapiens
Measured Survival by item
Returns: the value as a bare number; no unit string appended.

Recorded Survival, per entry:
>>> result("OC1/C(=C/c2cn(Cc3ccccc3)c3ccc(Br)cc23)N2CCC1CC2 (stereo not given)")
0.59
>>> result("Cc1ccc(Cn2cc(/C=C3/C(=O)C4CCN3CC4)c3cc(C)ccc32)cc1")
1
>>> result("COc1ccc2c(c1)c(/C=C1/C(=O)C3CCN1CC3)cn2Cc1ccccc1")
0.75

Problem: Reported Survival, compound O=C1/C(=C/c2cn(Cc3ccc(Cl)cc3)c3ccc(Br)cc23)N2CCC1CC2 : ____
Solution: 1

Problem: // repeat for COc1ccc(Cn2cc(/C=C3/C(=O)C4CCN3CC4)c3cc(Br)ccc32)cc1 and report
Solution: 0.86

Problem: // repeat for OC1/C(=C/c2cn(Cc3ccc(Cl)cc3)c3ccc(Br)cc23)N2CCC1CC2 (stereo not given) and report
Solution: 0.9

Problem: // repeat for O=C1/C(=C/c2cn(Cc3ccccc3)c3ccccc23)N2CCC1CC2 and report
Solution: 0.5

Problem: // repeat for O=C1/C(=C/c2cn(Cc3ccccc3)c3ccc(Br)cc23)N2CCC1CC2 and report
Solution: 1

Problem: // repeat for COc1ccc(Cn2cc(/C=C3/C(O)C4CCN3CC4)c3cc(Br)ccc32)cc1 (stereo not given) and report
Solution: 0.61

Problem: // repeat for O=C1/C(=C/c2cn(Cc3ccc(F)cc3)c3ccccc23)N2CCC1CC2 and report
Solution: 0.71

---

test system: HT-29; experiment: Growth inhibition of HT29 cells assessed as relative survival at 150 uM after 2 hrs relative to control; format: functional, Homo sapiens
Measured Survival by item
Returns: the value as a bare number; no unit string appended.

>>> result("O=C1/C(=C/c2cn(Cc3ccc(Cl)cc3)c3ccccc23)N2CCC1CC2")
0.56
>>> result("Cc1ccc(Cn2cc(/C=C3/C(=O)C4CCN3CC4)c3cc(Br)ccc32)cc1")
1
>>> result("Cc1ccc2c(c1)c(/C=C1/C(=O)C3CCN1CC3)cn2Cc1ccccc1")
0.98

Okay, next one:
Problem: Reported Survival, compound OC1/C(=C/c2cn(Cc3ccc(F)cc3)c3ccc(Br)cc23)N2CCC1CC2 (centres undefined) : ____
Solution: 0.52
